# Target Under Test: STAT6 (Homo sapiens, UniProt P42226)
# Construct: stably transfected HaCaT keratinocyte cell line, which expresses NanoLuc luciferase reporter gene under the transcriptional control of the STAT6 responsive promoter; endogenous in cells; host or cells: HaCaT keratinocyte reporter cell line (stably transfected with a NanoLuc reporter)
# Sequence (P42226 whole entry): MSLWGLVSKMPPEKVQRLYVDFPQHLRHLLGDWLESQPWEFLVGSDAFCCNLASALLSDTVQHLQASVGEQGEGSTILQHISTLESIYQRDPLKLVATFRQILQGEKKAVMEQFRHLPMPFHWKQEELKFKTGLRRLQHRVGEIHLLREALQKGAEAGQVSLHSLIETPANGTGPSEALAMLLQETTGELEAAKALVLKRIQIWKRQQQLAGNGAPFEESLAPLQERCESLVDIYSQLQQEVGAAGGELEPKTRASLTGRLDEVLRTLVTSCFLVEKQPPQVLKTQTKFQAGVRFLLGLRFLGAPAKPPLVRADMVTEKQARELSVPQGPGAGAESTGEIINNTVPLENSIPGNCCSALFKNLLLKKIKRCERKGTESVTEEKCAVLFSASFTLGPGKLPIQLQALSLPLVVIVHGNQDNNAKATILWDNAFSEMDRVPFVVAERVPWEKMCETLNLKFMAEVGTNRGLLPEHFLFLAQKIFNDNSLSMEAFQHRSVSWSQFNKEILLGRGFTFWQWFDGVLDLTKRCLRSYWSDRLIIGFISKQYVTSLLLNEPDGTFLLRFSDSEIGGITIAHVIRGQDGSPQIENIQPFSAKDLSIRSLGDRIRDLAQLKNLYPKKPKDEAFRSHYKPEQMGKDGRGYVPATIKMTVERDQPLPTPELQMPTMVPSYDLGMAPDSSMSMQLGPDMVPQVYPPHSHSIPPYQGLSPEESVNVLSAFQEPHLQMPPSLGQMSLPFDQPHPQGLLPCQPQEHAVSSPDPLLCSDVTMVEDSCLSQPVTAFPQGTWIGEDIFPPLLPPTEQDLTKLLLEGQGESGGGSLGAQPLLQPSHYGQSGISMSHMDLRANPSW
# Protocol Details: STAT6 Reporter Luciferase Assay (IL-13 stimulated HaCaT keratinocyte NanoLuc reporter cells)
# Type: cell-based
# Setup Conditions: IL-13 stimulated HaCaT STAT6 NanoLuc reporter cells; read-out: Reporter EC50
Parameter Measured: EC50 (nM)

Recorded results for 2 compounds are shown here.
- Compound: "CC(C)n1nc(C(=O)NCc2ccc(NC(=O)N3CC4CC(C3)O4)cc2)c2c1CCN(c1ccc(C(=O)N(C)C)cn1)C2 [Example 184]"
  EC50 (nM): 27
- Compound: "CC(C)n1nc(C(=O)NCc2ccc(NC(=O)N(C)C)cc2)c2c1CCN(c1ccc(C(=O)N3CCc4c(ncn4C4CC4)C3)cn1)C2 [Example 420]"
  EC50 (nM): 17

I: CC(C)n1nc(C(=O)NCc2ccc(NC(=O)N(C)C)cc2)c2c1CCN(c1ccc(C(=O)N3Cc4ccncc4C3)cn1)C2 [Example 378]
II: CCn1nc(C(=O)NCc2ccc(NC(=O)N(C)C)cc2)c2c1C(C(F)(F)F)CN(c1ncc(C(=O)N(C)C)cn1)C2 (racemic) [Example 460]
III: CC(C)n1nc(C(=O)NCc2ccc(NC(=O)N(C)C)cc2)c2c1[C@@H](C)CN(c1ncc(C(=O)O)cn1)C2 [Example 498]
IV: CCn1nc(C(=O)NCc2ccc(NC(=O)N(C)C)cc2)c2c1[C@@H](C)CN(c1ncc(C(=O)N3Cc4cccnc4C3)cn1)C2 [Example 495]
Request: rank_up(items): orders items by reported EC50 in ascending numerical order. Give the labels in the order specified.
Response: II, IV, I, III
(II: 0.3 nM, IV: 1 nM, I: 15 nM, III: 133 nM)

From: patent US20250320213A1
